Target: CDK1/cyclinB (Homo sapiens, UniProt P06493)
Sequence (P06493 whole entry): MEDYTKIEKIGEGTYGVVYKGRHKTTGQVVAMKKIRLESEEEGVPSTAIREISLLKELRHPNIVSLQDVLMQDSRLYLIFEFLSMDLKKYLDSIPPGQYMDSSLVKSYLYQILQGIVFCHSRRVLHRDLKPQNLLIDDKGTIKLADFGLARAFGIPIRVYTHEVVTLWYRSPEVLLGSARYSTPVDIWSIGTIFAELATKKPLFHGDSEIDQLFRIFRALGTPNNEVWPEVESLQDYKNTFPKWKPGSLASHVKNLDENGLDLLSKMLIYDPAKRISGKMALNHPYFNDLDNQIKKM
Sequence (P14635 whole entry partner): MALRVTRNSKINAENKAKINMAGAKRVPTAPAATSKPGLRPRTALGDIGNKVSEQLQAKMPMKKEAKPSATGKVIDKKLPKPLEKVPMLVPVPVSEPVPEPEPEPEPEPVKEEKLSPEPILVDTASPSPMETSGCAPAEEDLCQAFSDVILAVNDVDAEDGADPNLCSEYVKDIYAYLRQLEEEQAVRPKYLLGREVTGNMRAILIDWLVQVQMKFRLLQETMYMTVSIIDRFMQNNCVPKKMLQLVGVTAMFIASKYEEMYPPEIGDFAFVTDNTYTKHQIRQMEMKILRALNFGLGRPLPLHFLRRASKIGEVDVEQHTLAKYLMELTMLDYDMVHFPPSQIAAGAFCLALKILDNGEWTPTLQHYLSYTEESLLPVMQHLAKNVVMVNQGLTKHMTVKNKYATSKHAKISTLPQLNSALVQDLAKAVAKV
Test: Inhibition of CDK enzyme activity (ADP-Glo kinase assay)
Settings: 10 uM ATP, histone H1 substrate
pIC50: −log10 of the molar value.
value_kind: pIC50

# compound, study_system, experimental_value
measured = [
    ("CN1CCN(c2cc(-c3nc(-c4ccnc(N)c4F)ccc3O)nc(N)n2)CC1", "CDK1/cyclinB (Homo sapiens, UniProt P06493)", 8.40),
]

I. Cc1cc(-c2nc(-c3ccnc(N)c3F)ccc2O)nc(N)n1 [Example 24]
II. Nc1nccc(-c2nc(-c3ccnc(N)c3F)ccc2O)n1 [Example 8]
III. Nc1nccc(-c2nc(-c3ccnc(N)c3O)ccc2O)n1
IV. Nc1nccc(-c2nc(-c3ccc(O)cc3)ccc2O)n1
Sort low-to-high on pIC50, please. Put the labels in the requested order and list them out.
IV, III, II, I
(IV: 7.94, III: 8.21, II: 8.68, I: 9.22)

====

Tested on: A549
Assay: Inhibition of cancer cell proliferation (MTT)
Type: cell-based, human
Details: 72 hrs
value_kind: GI50 (nM)

# molecule, GI50 [nM]
records = [
    ("CCCN1CCCC(c2nc(N)nc(-c3nc(-c4ccnc(N)c4F)ccc3O)c2C)C1 (centres unmarked)", 1300),
    ("CCc1cnc(N)nc1-c1nc(-c2ccnc(N)c2F)ccc1O", 40),
    ("CCCN1CCC(c2nc(N)nc(-c3nc(-c4ccnc(N)c4F)ccc3O)c2C)CC1", 80),
]

A. CCN1CCC(c2cc(-c3nc(-c4ccnc(N)c4F)ccc3O)nc(N)n2)CC1
B. Cc1c(-c2nc(-c3ccnc(N)c3F)ccc2O)nc(N)nc1C1CCCN(C)C1 (centres unmarked)
C. Cc1cnc(N)nc1-c1nc(-c2ccnc(N)c2F)ccc1O [Example 100]
D. CC(C)N1CCCC(c2cc(-c3nc(-c4ccnc(N)c4F)ccc3O)nc(N)n2)C1 (centres unmarked)
E. CCCc1cnc(N)nc1-c1nc(-c2ccnc(N)c2F)ccc1O [Example 103]
Sort low-to-high on GI50, please. Put the labels in the requested order and list them out.
E, A, D, C, B
(E: 10 nM, A: 20 nM, D: 30 nM, C: 70 nM, B: 160 nM)

====

Target: CDK5/p25 (Homo sapiens, UniProt Q00535)
Sequence (Q00535 whole entry): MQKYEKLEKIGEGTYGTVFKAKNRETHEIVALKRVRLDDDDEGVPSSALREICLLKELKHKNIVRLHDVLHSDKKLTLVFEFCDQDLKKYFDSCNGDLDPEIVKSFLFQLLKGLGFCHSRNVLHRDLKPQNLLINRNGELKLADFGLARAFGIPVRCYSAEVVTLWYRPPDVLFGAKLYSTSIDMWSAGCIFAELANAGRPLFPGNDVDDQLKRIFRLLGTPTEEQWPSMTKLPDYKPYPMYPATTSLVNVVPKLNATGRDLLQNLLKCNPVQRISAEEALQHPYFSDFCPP
Sequence (Q15078 99-307 partner limits assumed): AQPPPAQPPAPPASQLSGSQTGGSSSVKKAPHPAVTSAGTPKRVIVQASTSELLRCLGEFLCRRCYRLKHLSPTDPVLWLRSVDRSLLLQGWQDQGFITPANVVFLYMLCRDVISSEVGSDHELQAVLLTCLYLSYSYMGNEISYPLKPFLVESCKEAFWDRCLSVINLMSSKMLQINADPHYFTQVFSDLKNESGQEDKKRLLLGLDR
Test: Inhibition of CDK enzyme activity (ADP-Glo kinase assay)
Settings: 10 uM ATP, histone H1 substrate
value_kind: IC50 (nM)

# compound, IC50 / nM
records = [
    ("Nc1nccc(-c2nc(-c3cccc(N)c3F)ccc2O)n1", 6.1),
]

I. Nc1nccc(-c2nc(-c3ccc(O)cc3)ccc2O)n1
II. Nc1cc(-c2ccc(O)c(-c3ccnc(N)n3)n2)ccn1
Between I and II , which one shows the larger IC50 value? Lab log: write the label of the selected item as the result.
I

I. CN1CCN(c2cc(-c3nc(-c4ccnc(N)c4F)ccc3O)nc(N)n2)CC1
II. Nc1nccc(-c2nc(-c3ccnc(N)c3F)ccc2O)n1 [Example 66]
III. CN(C)c1cc(-c2nc(-c3ccnc(N)c3F)ccc2O)nc(N)n1
// ranking: key=IC50, reverse=True Put the labels in the requested order and list them out.
I, III, II

1. CC(C)c1cc(-c2nc(-c3ccnc(N)c3F)ccc2O)nc(N)n1
2. Nc1nccc(-c2nc(-c3ccncc3)ccc2O)n1
Just tell me: smaller IC50 value, 1 or 2 ? Lab log: write the label of the selected item as the result.
1
(1: 3.13 nM, 2: 5.9 nM)

====

Molecular target: CDK5/p25 (Homo sapiens, UniProt Q00535)
Experiment: Inhibition of CDK enzyme activity (ADP-Glo kinase assay)
Details: 10 uM ATP, histone H1 substrate
value_kind: IC50 (nM)

# molecule, IC50, nM
rows = [
    ("CN1CCC(c2cc(-c3nc(-c4ccnc(N)c4F)ccc3O)nc(N)n2)CC1 [Example 34]", 2.2),
]

1. Nc1nccc(-c2ccc(O)c(-c3ccnc(N)n3)n2)n1 [Example 1]
2. CC(C)c1cnc(N)nc1-c1nc(-c2ccnc(N)c2F)ccc1O [Example 104]
Between 1 and 2 , which one shows the larger IC50 value? Lab log: write the label of the selected item as the result.
1

Ref: patent US20200190062A1
